Experiment: Acute toxicity (DL50) i.v. in rat
Format: in vivo
Details: in vivo, iv, dose causing death in 50% of the animals
Answer each item with its documented LD50.
// units = mg/kg; emit number, no label

Exercise: Look up and state reported LD50 for CCCN(CCC)C(=O)C(Cc1ccc(OCCCN2CCN(Cc3ccccc3)CC2)cc1)NC(=O)c1ccccc1 (racemic)
Solution: 110

Exercise: Look up and state reported LD50 for CCNC(=O)C(Cc1ccc(OCCN(C)C)cc1)NC(=O)OCc1ccccc1 (stereo not drawn)
Solution: 139

Exercise: Look up and state reported LD50 for CCCN(CCC)C(=O)C(Cc1ccc(OCCN(C)C)cc1)NC(=O)OCc1ccccc1 (stereo not drawn)
Solution: 63

Exercise: Look up and state reported LD50 for CCCN(CCC)C(=O)C(Cc1ccc(OCCN(CC)CC)cc1)NC(=O)c1ccccc1 (stereo not drawn) [CR 804]
Solution: 33.5

Exercise: Look up and state reported LD50 for CCCN(CCC)C(=O)C(Cc1ccc(OCCN(CC)CC)cc1)NC(=O)c1ccc(OC)cc1 (racemic)
Solution: 56.4

Exercise: Look up and state reported LD50 for COc1ccc(Cc2nccc3cc(OC)c(OC)cc23)cc1OC [Papaverine, papaverine, reference compound]
Solution: 27.2

Exercise: Look up and state reported LD50 for CCN(CC)C(=O)C(Cc1ccc(OCCN2CCN(C)CC2)cc1)NC(=O)c1ccccc1 (racemic)
Solution: 102

Exercise: Look up and state reported LD50 for CCCCNC(=O)C(Cc1ccc(OCCN2CCCC2)cc1)NC(=O)c1ccc(Cl)cc1 (racemic)
Solution: 27

Exercise: Look up and state reported LD50 for CCCN(CCC)C(=O)C(Cc1ccc(OCCN(CC)CC)cc1)NC(=O)c1ccc(Cl)cc1 (stereo not drawn) [CR 831]
Solution: 35

* * *

Answer each item with its documented Antispastic activity in vitro, cavy ileum, serotonine (relative to methysergide = 1).
System: cavy ileum (serotonine spasm)
Experiment: Antispastic activity in vitro on cavy ileum, spasmiser serotonine
Type: cell-based
Settings: Table 2; ED50 ratio
Output: the number by itself.

Exercise: Look up and state reported Antispastic activity in vitro, cavy ileum, serotonine (relative to methysergide = 1) for CCCN(CCC)C(=O)C(Cc1ccc(OCCN(CC)CC)cc1)NC(=O)c1ccc(Cl)cc1 (racemic)
Solution: 0.74

Exercise: Look up and state reported Antispastic activity in vitro, cavy ileum, serotonine (relative to methysergide = 1) for CCCN(CCC)C(=O)C(Cc1ccc(OCCN(CC)CC)cc1)NC(=O)c1ccccc1 (racemic)
Solution: 0.69

Exercise: Look up and state reported Antispastic activity in vitro, cavy ileum, serotonine (relative to methysergide = 1) for CCCN(CCC)C(=O)C(Cc1ccc(OCCCN2CCN(C)CC2)cc1)NC(=O)c1ccc(Cl)cc1 (racemic)
Solution: 1.2

Exercise: Look up and state reported Antispastic activity in vitro, cavy ileum, serotonine (relative to methysergide = 1) for CCCN(CCC)C(=O)C(Cc1ccc(OCCN(C)C)cc1)NC(=O)OCc1ccccc1 (stereo not shown)
Solution: 0.87

* * *

Test system: rat
Test: Acute toxicity (DL50) i.v. in rat
Assay type: in vivo
Conditions: dose causing death in 50% of the animals
Answer each item with its documented DL50 in a rat.
// units = mg/kg; emit number, no label

Exercise: Look up and state reported DL50 in a rat for CCCN(CCC)C(=O)C(Cc1ccc(OCCN(C)C)cc1)NC(=O)c1ccc(C)cc1 (racemic)
Solution: 48.1

Exercise: Look up and state reported DL50 in a rat for CCCN(CCC)C(=O)C(Cc1ccc(OCCN2CCCC2)cc1)NC(=O)c1ccc(C)cc1 (racemic)
Solution: 17.5

Exercise: Look up and state reported DL50 in a rat for CCCN(CCC)C(=O)C(Cc1ccc(OCCCN(C)C)cc1)NC(=O)c1ccccc1 (racemic) [CR 816]
Solution: 16.0

Exercise: Look up and state reported DL50 in a rat for CCCCCCNC(=O)C(Cc1ccc(OCCN2CCCC2)cc1)NC(=O)c1ccc(C)cc1 (racemic)
Solution: 41
